Test system: Leishmania amazonensis
Protocol: Antileishmanial activity against Leishmania amazonensis IFLA/BR/1967/PH8 amastigotes infected in mouse peritoneal macrophage assessed as inhibition of parasite growth pre-infected in cells for 4 hrs followed by compound addition and measured after 24 hrs by Giemsa staining based analysis
Type: functional, organism-based
Condition info: IFLA/BR/1967/PH8, Peritoneal macrophage
pIC50: −log10 of the molar value.
The label depends only on pIC50: Satisfied if it is at least 5, Not satisfied if it is smaller.

COc1ccc(-c2cc(Cn3ccnc3[N+](=O)[O-])on2)cc1OC	Not satisfied

Input: Would you say O=[N+]([O-])c1ccc(-c2cc(Cn3ccnc3[N+](=O)[O-])on2)cc1 shows pIC50 at minimum 5?
Output: Not satisfied

Input: Is reported pIC50 greater than or equal to 5 here: O=[N+]([O-])c1nccn1Cc1cc(-c2ccc(N3CCNCC3)cc2)no1
Output: Satisfied

Input: Is reported pIC50 greater than or equal to 5 here: Cc1ccc(-c2cc(Cn3ccnc3[N+](=O)[O-])on2)cc1[N+](=O)[O-]
Output: Satisfied

Input: Does the compound COc1ccc(-n2cc(-c3cc(OC)c(OC)c(OC)c3)nn2)cc1OC have recorded pIC50 that is 5 or more?
Output: Not satisfied

====

System: Leishmania amazonensis
Protocol: Antileishmanial activity against Leishmania amazonensis IFLA/BR/1967/PH8 amastigotes infected in mouse peritoneal macrophage assessed as inhibition of parasite growth pre-infected in cells for 4 hrs followed by compound addition and measured after 24 hrs by Giemsa staining based analysis
Format: functional, organism-based
Condition info: IFLA/BR/1967/PH8, Peritoneal macrophage
The compounds listed here are annotated with their IC50.
Kindly answer with a numeric value in µM, unit omitted.

Worked examples follow.
CN1CCCN(c2ccc(-c3cc(Cn4ccnc4[N+](=O)[O-])on3)cc2)CC1	2.3
Nc1ccc(-c2cc(Cn3ccnc3[N+](=O)[O-])on2)cc1	21.7
O=[N+]([O-])c1nccn1Cc1cc(-c2ccc(N3CCN(CCO)CC3)cc2)no1	5.6

Input: Find IC50 for COc1cc(-c2cc(-c3cc(OC)c(OC)c(OC)c3)on2)cc(OC)c1OC on Leishmania amazonensis and write it down.
Output: 2.9

Input: Report value: IC50, system: Leishmania amazonensis, compound: O=[N+]([O-])c1nccn1Cc1cc(-c2cccc(Cl)c2)no1
Output: 10.2

Input: Check Leishmania amazonensis data and give IC50 for CCN1CCN(c2ccc(-c3cc(Cn4ccnc4[N+](=O)[O-])on3)cc2)CC1 .
Output: 5.5

Input: Look up and report IC50, with Leishmania amazonensis as system, for CSc1ccc(-c2cc(Cn3ccnc3[N+](=O)[O-])on2)cc1
Output: 22.4

Input: Identify measured IC50 obtained with Leishmania amazonensis for O=[N+]([O-])c1nccn1Cc1cc(-c2ccc3c(c2)OCO3)no1 .
Output: 8.3

Input: Report value only: IC50, Leishmania amazonensis, CC(C)N1CCN(c2ccc(-c3cc(Cn4ccnc4[N+](=O)[O-])on3)cc2)CC1
Output: 4.7

Input: Look up and report IC50, with Leishmania amazonensis as system, for CN(C)c1ccc(-c2cc(Cn3ccnc3[N+](=O)[O-])on2)cc1
Output: 33.4

====

Test system: Trypanosoma cruzi
Protocol: Binding affinity to Trypanosoma cruzi type I nitro reductase at 25 uM incubated for 5 mins in the presence of NADH by microplate reader analysis
Outcome measure: Kobs (s⁻¹)
Use s⁻¹ as the unit, but write only the number.

Use the examples below as a reference point.
O=C(Cn1ccnc1[N+](=O)[O-])NCc1ccccc1 [BENZNIDAZOLE]	0.3
O=[N+]([O-])c1nccn1Cc1cc(-c2ccc(O)cc2)no1	0.68
COc1ccc(-c2cc(Cn3ccnc3[N+](=O)[O-])on2)cc1OC	0.82
CN(C)c1ccc(-c2cc(Cn3ccnc3[N+](=O)[O-])on2)cc1	0.31
COc1ccc(-c2cc(Cn3ccnc3[N+](=O)[O-])on2)cc1[N+](=O)[O-]	0.57

Input: Tell us which Kobs value is on record for CN1CCN(c2ccc(-c3cc(Cn4ccnc4[N+](=O)[O-])on3)cc2)CC1
Output: 0.38

Input: Entry CCN1CCN(c2ccc(-c3cc(Cn4ccnc4[N+](=O)[O-])on3)cc2)CC1 needs its Kobs filled in; supply it.
Output: 0.48

Input: Please list Kobs recorded for the molecule O=[N+]([O-])c1ccc(-c2cc(Cn3ccnc3[N+](=O)[O-])on2)o1
Output: 1.27
